Source: patent US11591369B2

Molecular target: αvβ8 integrin (Homo sapiens, UniProt P06756+P26012)
Construct: All purified integrins were purchased from R&D Systems (MN, USA)
Test: Competitive binding ELISA, αvβ8 integrin
Where a SMILES comes first, the peptide text is derived from it. The star is where a group is joined. Benzoyl(4-F) = O=C(c1ccc(F)cc1)*
READOUT LABEL: IC50 (µM)
Write the answer as a number in µM, unit excluded.

Query CC(C)C[C@H](NC(=O)[C@H](CC(=O)O)NC(=O)CNC(=O)[C@@H](N)CCCNC(=N)N)C(=O)N[C@@H](C)C(=O)N[C@@H](CC(=O)O)C(=O)N[C@@H](CC(C)C)C(=O)N[C@@H](CCCNC(=N)N)C(=O)N[C@@H](CCCCNC(=O)c1ccc(F)cc1)C(N)=O [P3] (H-RGDLADLRK(Benzoyl(4-F))-NH2) yields IC50 of 0.2

Query CC(C)C[C@H](NC(=O)[C@H](Cc1ccc(O)cc1)NC(=O)[C@@H](NC(=O)[C@H](CC(C)C)NC(=O)[C@H](CC(=O)O)NC(=O)CNC(=O)[C@@H](N)C(C)C)[C@@H](C)O)C(=O)N[C@@H](CCCCN)C(=O)N[C@@H](CCCCNC(=O)c1ccc(F)cc1)C(N)=O [P1] (H-VGDLTYLKK(Benzoyl(4-F))-NH2) yields IC50 of 5.3

* * *

I'd appreciate it if you could supply IC50 values for the items below.
Molecular target: αvβ6 integrin (Homo sapiens, UniProt P06756+P18564)
Construct: All purified integrins were purchased from R&D Systems (MN, USA)
Assay: Competitive binding ELISA against biotinylated LAP (BtLAP), αvβ6 integrin
Where a SMILES comes first, the peptide text is derived from it. The star is where a group is joined. Benzoyl(4-F) = O=C(c1ccc(F)cc1)*
Write the answer as a number in nM, unit excluded.

Query CC(C)C[C@H](NC(=O)[C@H](CC(=O)O)NC(=O)[C@H](CO)NC(=O)[C@H](CCCNC(=N)N)NC(=O)c1ccc(F)cc1)C(=O)N[C@H](C(=O)N1CCC[C@H]1C(=O)N[C@@H](CC(C)C)C(=O)N[C@@H](Cc1ccccc1)C(N)=O)[C@@H](C)O [KL3] ({Benzoyl(4-F)}-RSDLTPLF-NH2) yields IC50 of 1700

Query CC(C)C[C@H](NC(=O)[C@H](CO)NC(=O)[C@H](CC(=O)O)NC(=O)[C@H](CC(C)C)NC(=O)[C@H](CC(=O)O)NC(=O)[C@@H](NC(=O)[C@H](CCCNC(=N)N)NC(=O)c1ccc(F)cc1)[C@@H](C)O)C(=O)N[C@@H](CCCNC(=N)N)C(=O)N[C@H](C(N)=O)[C@@H](C)O [RTD-9mer, reference compound] yields IC50 of 22

Query CC(C)C[C@H](NC(=O)[C@H](CC(=O)O)NC(=O)CNC(=O)[C@H](CCCNC(=N)N)NC(=O)CNC(=O)c1ccc(F)cc1)C(=O)NCC(=O)N[C@@H](CCCNC(=N)N)C(=O)N[C@@H](CC(C)C)C(=O)N[C@@H](C)C(=O)N[C@@H](CCC(N)=O)C(=O)N[C@@H](CCCCN)C(=O)N[C@H](C(=O)N[C@@H](C)C(=O)N[C@@H](CCCNC(=N)N)C(=O)N[C@H](C(N)=O)[C@@H](C)O)C(C)C [SFLAP3-15mer] ({Benzoyl(4-F)}-GRGDLGRLAQKVART-NH2) yields IC50 of 1.3

* * *

System: DX3puroβ6 (αvβ6+) cells
Experiment: [18F]-radiolabeled peptide cell binding and internalization, DX3puroβ6 (αvβ6+) cells
Format: cell-based, human
Primed or numbered codes have the meaning given here. Where no end group is shown, it is not given here. [ ]: non-standard residue; d: D form. The star is where a group is joined. (18F)FB″ = [18F]fluorobenzoyl, O=C(c1ccc([18F])cc1)*; PEG28′ = polyethylene glycol-28; Amb = aminomethylbenzoyl
READOUT LABEL: DX3puroβ6 (αvβ6+)/DX3puro (αvβ6−) selectivity ratio

Query [^18F]FB-VGDLTYLKRKATVQ ({(18F)FB″}-VGDLTYLKRKATVQ) [N-[^18F]P1Q-Scrb] yields DX3puroβ6 (αvβ6+)/DX3puro (αvβ6−) selectivity ratio of 1.7±0.06 :1

Query [^18F]FB-Amb-VGDLTYLKQKVART-PEG28 ({(18F)FB″-Amb}-VGDLTYLKQKVART[PEG28′]) [N-[^18F]T1-f] yields DX3puroβ6 (αvβ6+)/DX3puro (αvβ6−) selectivity ratio of 3.2±0.4 :1

Query [^18F]FB-VGDLTYLKQKVART-PEG28 ({(18F)FB″}-VGDLTYLKQKVART[PEG28′]) [N-[^18F]T1] yields DX3puroβ6 (αvβ6+)/DX3puro (αvβ6−) selectivity ratio of 41.7±5.3 :1

Query [^18F]FB-RGDLTYLKQKVART-PEG28 ({(18F)FB″}-RGDLTYLKQKVART[PEG28′]) [N-[^18F]T1-V1R] yields DX3puroβ6 (αvβ6+)/DX3puro (αvβ6−) selectivity ratio of 11.1±0.5 :1

Query FB-NAVPNLRGDLQVLAQKVART [A20FMDV2, reference compound] yields DX3puroβ6 (αvβ6+)/DX3puro (αvβ6−) selectivity ratio of 10:1

* * *

I'd appreciate it if you could supply IC50 values for the items below.
Biological target: αvβ8 integrin (Homo sapiens, UniProt P06756+P26012)
Construct: All purified integrins were purchased from R&D Systems (MN, USA)
Assay: Competitive binding ELISA, αvβ8 integrin
Where a SMILES comes first, the peptide text is derived from it. The star is where a group is joined. Benzoyl(4-F) = O=C(c1ccc(F)cc1)*

Case CC(C)C[C@H](NC(=O)[C@H](CC(=O)O)NC(=O)[C@H](CO)NC(=O)[C@H](CCCNC(=N)N)NC(=O)c1ccc(F)cc1)C(=O)N[C@H](C(=O)N1CCC[C@H]1C(=O)N[C@@H](CC(C)C)C(=O)N[C@@H](Cc1ccccc1)C(=O)N[C@@H](CCC(N)=O)C(=O)N[C@@H](CCCCN)C(=O)N[C@H](C(=O)N[C@@H](C)C(=O)N[C@@H](CCCNC(=N)N)C(=O)N[C@H](C(N)=O)[C@@H](C)O)C(C)C)[C@@H](C)O [KL3Q] ({Benzoyl(4-F)}-RSDLTPLFQKVART-NH2) , αvβ8 integrin (Homo sapiens, UniProt P06756+P26012), IC50 recorded as > 100 µM

Case CC(C)C[C@H](NC(=O)[C@H](Cc1ccc(O)cc1)NC(=O)[C@@H](NC(=O)[C@H](CC(C)C)NC(=O)[C@H](CC(=O)O)NC(=O)CNC(=O)[C@@H](NC(=O)c1ccc(F)cc1)C(C)C)[C@@H](C)O)C(=O)N[C@@H](CCCCN)C(=O)N[C@@H](CCCNC(=N)N)C(=O)N[C@@H](CCCCN)C(=O)N[C@@H](C)C(=O)N[C@H](C(=O)N[C@H](C(=O)N[C@@H](CCC(N)=O)C(N)=O)C(C)C)[C@@H](C)O [P1Q-Scrb] ({Benzoyl(4-F)}-VGDLTYLKRKATVQ-NH2) , αvβ8 integrin (Homo sapiens, UniProt P06756+P26012), IC50 recorded as 2.9 µM

Case CC(C)C[C@H](NC(=O)[C@H](CC(=O)O)NC(=O)[C@H](CO)NC(=O)[C@H](CCCNC(=N)N)NC(=O)c1ccc(F)cc1)C(=O)N[C@H](C(=O)N1CCC[C@H]1C(=O)N[C@@H](CC(C)C)C(=O)N[C@@H](Cc1ccccc1)C(N)=O)[C@@H](C)O [KL3] ({Benzoyl(4-F)}-RSDLTPLF-NH2) , αvβ8 integrin (Homo sapiens, UniProt P06756+P26012), IC50 recorded as > 100 µM

Case CC(C)C[C@H](NC(=O)[C@H](CC(=O)O)NC(=O)CNC(=O)[C@H](CCCNC(=N)N)NC(=O)c1ccc(F)cc1)C(=O)N[C@@H](C)C(=O)N[C@@H](CC(=O)O)C(=O)N[C@@H](CC(C)C)C(=O)N[C@@H](CCCNC(=N)N)C(=O)N[C@@H](CCC(N)=O)C(=O)N[C@@H](CCCCN)C(=O)N[C@H](C(=O)N[C@@H](C)C(=O)N[C@@H](CCCNC(=N)N)C(=O)N[C@H](C(N)=O)[C@@H](C)O)C(C)C [P3Q] ({Benzoyl(4-F)}-RGDLADLRQKVART-NH2) , αvβ8 integrin (Homo sapiens, UniProt P06756+P26012), IC50 recorded as 0.02 µM

Case CC(C)C[C@H](NC(=O)[C@H](Cc1ccc(O)cc1)NC(=O)[C@@H](NC(=O)[C@H](CC(C)C)NC(=O)[C@H](CC(=O)O)NC(=O)CNC(=O)[C@@H](NC(=O)c1ccc(F)cc1)C(C)C)[C@@H](C)O)C(=O)N[C@@H](CCCCN)C(=O)N[C@@H](CCC(N)=O)C(=O)N[C@@H](CCCCN)C(=O)N[C@H](C(=O)N[C@@H](C)C(=O)N[C@@H](CCCNC(=N)N)C(=O)N[C@H](C(N)=O)[C@@H](C)O)C(C)C [P1Q] , αvβ8 integrin (Homo sapiens, UniProt P06756+P26012), IC50 recorded as > 100 µM
